assay: Counterscreen qHTS for small molecule stabilizers of the endoplasmic reticulum resident proteome: GLuc-NoTag assay (AID 1508627); details: Gaussia luciferase NoTag secretion counterscreen, luminescence, thapsigargin 100 nM for final 4 h; series mostly up to 76.4 µM
Records with an inconclusive call do not appear. Activity calls are given as the source filed them. Calls come from the whole dose curve; as a rule, active = well fitted inhibition curve with a large enough effect; inconclusive = small, poorly fitted or top-dose-only effect; inactive = no such curve, though single readings can be large or run the other way.
// classify into class 1 for active, class 0 for inactive

Hi team, can someone confirm the assay call for O=c1cc(N2CCOCC2)oc2c(-c3ccccc3)cccc12 ?
class 0

# repeat for CC1(C)CCC(C)(C)c2cc(NC(=O)c3ccc(C(=O)O)cc3)ccc21
class 0

# repeat for CN(C)c1ccc(O)c2c1C[C@H]1C[C@H]3[C@H](N(C)C)C(=O)C(C(N)=O)=C(O)[C@@]3(O)C(=O)C1=C2O
class 0

# repeat for CCN(CC)C(=S)SSC(=S)N(CC)CC
class 1

# repeat for O=C(O)c1cn(-c2ccc(F)cc2)c2cc(N3CCNCC3)c(F)cc2c1=O
class 0

# repeat for C[C@H](Cc1ccc(O)c(O)c1)[C@@H](C)Cc1ccc(O)c(O)c1
class 1

# repeat for CN1CCC(=C2c3ccccc3CCc3sccc32)CC1
class 0

====

assay: Quantitative High-Throughput drug screen in 47 multiple myeloma cell lines against the NCATS MIPE library collection: OPM1_PLB cell viability assay (AID 1918989); conditions: CellTiter-Glo, 48 h; series mostly up to 45.8 µM; note: nearly all actives have a fitted effect of over 40% in size
Results filed as inconclusive are left out. Activity calls are given as the source filed them. The call rests on the fitted dose curve; in most records, active means well fitted cell-killing curve with a large enough effect; inconclusive means small, poorly fitted or top-dose-only effect, or effect the other way; inactive means no such curve, though single readings can be large or run the other way.
// classify into T for active, F for inactive

Hi team, can someone confirm the assay call for CCCCN(CCCC)CCC(O)c1cc2c(Cl)cc(Cl)cc2c2cc(C(F)(F)F)ccc12 (stereo not given) ?
T

# repeat for Nc1ccc(S(N)(=O)=O)cc1
F

# repeat for O=C1c2c(O)cc(O)cc2OC(c2ccc(O)c(O)c2)C1O (stereo not given)
F

# repeat for N=C(N=C(N)N)N1CCOCC1
F

# repeat for CC(C)c1ccc2c(c1)c(SC(C)(C)C)c(CC(C)(C)C(=O)O)n2Cc1ccc(Cl)cc1
F

# repeat for COC(=O)N[C@H](C(=O)N[C@@H](Cc1ccccc1)[C@@H](O)CN(Cc1ccc(-c2ccccn2)cc1)NC(=O)[C@@H](NC(=O)OC)C(C)(C)C)C(C)(C)C
F

# repeat for Nc1cc(C(Cl)=C(Cl)Cl)c(S(N)(=O)=O)cc1S(N)(=O)=O
F

# repeat for CCCCC(CC)COC(=O)C(C#N)=C(c1ccccc1)c1ccccc1 (stereo not given)
F

# repeat for C[Se]CCC(N)C(=O)O (stereo not given)
F

# repeat for Cc1ccc(NC(=O)c2ccc(CN3CCN(C)CC3)cc2)cc1Nc1nccc(-c2cccnc2)n1
T

====

test system: CP211; test: qHTS profiling for inhibitors of Plasmodium falciparum proliferation (AID 504749); note: nearly all actives have a fitted effect of over 60% in size; conditions: P. falciparum in erythrocytes, SYBR Green DNA, 72 h; series mostly up to 28.7 µM
Inconclusive results are not listed. The source made the active and inactive calls. Calls follow the shape of the dose curve; as a rule, active = well fitted inhibition curve with a large enough effect; inconclusive = small, poorly fitted or top-dose-only effect; inactive = flat fitted curve, though single readings scatter.
// classify into active, inactive

Hi team, can someone confirm the assay call for COCCCOc1ccnc(CS(=O)c2nc3ccccc3[nH]2)c1C (stereo not given) ?
inactive

# repeat for O=C(O)c1cc(=O)c2c(OCC(O)COc3cccc4oc(C(=O)O)cc(=O)c34)cccc2o1
inactive

# repeat for Cc1cccc(C)c1OCC(=O)N[C@@H](Cc1ccccc1)[C@@H](O)C[C@H](Cc1ccccc1)NC(=O)[C@H](C(C)C)N1CCCNC1=O
active

# repeat for N=C(N=C(N)N)N1CCOCC1
inactive

# repeat for CCN(CCO)CCCC(C)Nc1ccnc2cc(Cl)ccc12 (stereo not given)
inactive

Values compiled from PubChem BioAssay (NCATS).
